Please respond with reported IC50 for every item in the list.
- systemUnderTest: mouse IDO1 (Mus musculus)
- Construct: The murine PANC02 pancreatic ductal adenocarcinoma cell line was routinely maintained in DMEM media; endogenous in cells
- Sequence (P28776 whole entry): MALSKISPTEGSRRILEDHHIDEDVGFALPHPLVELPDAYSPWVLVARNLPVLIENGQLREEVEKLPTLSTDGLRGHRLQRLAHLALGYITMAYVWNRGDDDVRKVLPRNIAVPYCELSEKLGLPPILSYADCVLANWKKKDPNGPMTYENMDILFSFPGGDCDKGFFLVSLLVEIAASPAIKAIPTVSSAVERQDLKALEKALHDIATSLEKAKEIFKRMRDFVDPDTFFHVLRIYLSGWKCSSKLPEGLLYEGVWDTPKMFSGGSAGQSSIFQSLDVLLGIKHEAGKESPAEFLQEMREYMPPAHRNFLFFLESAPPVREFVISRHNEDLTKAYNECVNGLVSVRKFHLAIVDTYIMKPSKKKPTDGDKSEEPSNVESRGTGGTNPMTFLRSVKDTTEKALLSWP
- testSummary: Mouse IDO1 cell-based assay (PANC02 cells, mouse IFNgamma-induced, N-formylkynurenine/L-tryptophan by RFMS)
- setupConditions: 30 ng/mL mouse IFNgamma, 48 hours

Data request, read-out IC50, for CCC(NC(=O)c1ccc(Cl)cc1)[C@H]1[C@@H]2C[C@@H](NC(=O)c3ncc(F)cc3F)C[C@@H]21 (stereo partly shown) [Compound 171]
500 to 2000 nM

Data request, read-out IC50, for CCC(NC(=O)c1ccc(Cl)cc1)[C@H]1[C@@H]2C[C@@H](n3cccc4ncnc3-4)C[C@@H]21 (stereo partly shown) [Compound 182]
> 5000 nM

Data request, read-out IC50, for CCC(NC(=O)c1ccc(Cl)cc1)[C@H]1[C@@H]2C[C@@H](n3c(=O)[nH]c4cc(F)ccc43)C[C@@H]21 (stereo partly shown) [Compound 192]
500 to 2000 nM

Data request, read-out IC50, for CCC(NC(=O)c1ccc(Cl)cc1)[C@H]1[C@@H]2C[C@@H](n3nnc4ccc(Br)cc43)C[C@@H]21 (stereo partly shown) [Compound 178]
< 500 nM
